Biological target: Fuc(a1-2)[GalNAc(a1-3)]Gal(b1-3)GlcNAc(b1-6)GalNAc
Assay: glycan array binding signal (z-score within array); higher = stronger binding
Settings: glycan notation: IUPAC condensed, linker removed
The sample as a whole holds a higher share of the strongest signals than the screen did.

BINDER | glycan array binding signal (z-score)
NKR-PIC (Mus musculus) (protein) GTGQKPSREKCCVFIQENLNKTTDCSVNLECPQDWLLHRDKCFHVSQVSNTWEEGQADCGRKGATLLLIQDQEELRFLLDSIKEKYNSFWIGLRFTLPDMNWKWINGTTFNSDVLKITGVTENGSCASILGDKVTPESCASDNRWICQKELNHETPSNDSGT | -0.363
Nc3LysM (protein) QFTVPPDTTAEPNTIKTCTWWHVAGSGDSCTSIASTYGITSEQFARWDMETTDSPKNPSVATACKLTVGNSYCIENNFGQDDPPTPSISSSTLIGTATTSTTASTTTGNGISTPTPIQEGMETATTTTSSGNGITTPTPTQAGMETVGNCDRFHLVKSGDQCGTIASTYGITLANFYSWNPAVGTSCQSLWLDTYVCVRTIGFVPPKTTTTTTKKPTSTTSAGGVATPTPTQPGMETVSGCKKFHKGRGNVSTVASGDQCGTIATRYGISLANFYSWNPAVGSSCQTLWLDYYVCVGR | -0.237
Gal 4 (Homo sapiens), Q8K419 (protein) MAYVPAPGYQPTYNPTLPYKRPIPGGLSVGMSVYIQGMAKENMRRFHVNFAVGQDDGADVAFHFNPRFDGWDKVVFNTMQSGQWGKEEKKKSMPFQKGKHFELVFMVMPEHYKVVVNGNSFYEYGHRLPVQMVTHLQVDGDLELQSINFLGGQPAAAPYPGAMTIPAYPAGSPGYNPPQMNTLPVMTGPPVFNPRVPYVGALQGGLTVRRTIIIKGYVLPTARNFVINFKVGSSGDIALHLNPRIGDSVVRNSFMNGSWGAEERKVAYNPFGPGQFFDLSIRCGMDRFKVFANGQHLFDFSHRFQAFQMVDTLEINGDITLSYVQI | 1.99
